# System: HCT-116
# method: NCI human cancer cell line screen (COMPARE screening), Colon HCT-116
# Type: cell-based
# test-parameters: Homo sapiens; HCT-116; concentration causing 50% growth inhibition; read-out: Cytotoxicity (G150 in μM) Colon HCT-116
readout-label: IC50 (µM)
Write the answer as a number in µM, unit excluded.

O=C(O)CCCn1c2c(c3ccccc3c1=O)C(=O)c1ccccc1-2 :: 40
CC[n+]1cc2cc(OC)c(OC)cc2c2c1-c1cc3c(cc1C2)OCO3 :: 13

Please find the next compound below.
Kindly note: HCT-116, CCn1c2c(c3cc(OC)c(OC)cc3c1=O)C(=O)c1cc3c(cc1-2)OCO3 [Compound 13k] , IC50 value reported: 2.6
